Attribution: patent US10273228B2

tested on: AD38 cells; experiment: AD38 viability normalized to DMSO control; type: cell-based; settings: 10 μM compound, vs DMSO control; Table 9
Measured Attribute: AD38 Viability Normalized Result (CPAM/DMSO %) at 10 μM
Express the result in % but write the number alone.

# AD38 Viability Normalized Result (CPAM/DMSO %) at 10 μM of "COC(=O)Cc1ccc(S(=O)(=O)N2CCN(c3nc(C)cc(Nc4ccc(F)cc4)n3)CC2)cc1" = 102

What the record says about "Cc1cc(Nc2ccc(F)cc2)nc(N2CCN(S(=O)(=O)c3ccc(O[C@H](C)C(=O)O)cc3)CC2)n1" : AD38 Viability Normalized Result (CPAM/DMSO %) at 10 μM is 98

Reported AD38 Viability Normalized Result (CPAM/DMSO %) at 10 μM for CCCCOc1ccc(S(=O)(=O)N2CCN(c3nc(Nc4ccc(F)cc4)cc(-c4nccs4)n3)CC2)cc1 [Compound 1359] was 97

response.value for "Cc1ccc(S(=O)(=O)N2CCN(c3nc(Nc4ccc(F)cc4)cc(C(F)(F)F)n3)CC2)cc1" (field: AD38 Viability Normalized Result (CPAM/DMSO %) at 10 μM) = 0

The reported value for COc1ccc(S(=O)(=O)N2CCN(c3nc(C)cc(Nc4ccc(F)cc4)n3)C(C)C2)cc1 (stereo not shown) in terms of AD38 Viability Normalized Result (CPAM/DMSO %) at 10 μM is 111

Form field AD38 Viability Normalized Result (CPAM/DMSO %) at 10 μM, entry "CCOc1ccc(S(=O)(=O)N2CCN(c3nc(Nc4ccc(C#N)cc4)cc(-c4cncs4)n3)CC2)cc1" : 109

Kindly note the recorded AD38 Viability Normalized Result (CPAM/DMSO %) at 10 μM for "CCOC(=O)C(C)(C)Oc1ccc(S(=O)(=O)N2CCN(c3nc(Nc4ccc(F)cc4)cc(C(F)(F)F)n3)CC2)cc1" , which is 98

----------
Tested on: AD38 cells
Assay: AD38 viability normalized to DMSO control
Format: cell-based
Settings: 10 μM compound, vs DMSO control; Table 6
Method: AD38 cells were then re-suspended with 10 mL of treatment medium and counted. Wells of a collagen coated 96-well NUNC microtiter plate were seeded at 50,000/well in 180 μL of treatment medium, and 20 μL of either 10% DMSO (Control) or a 10× solution of test compound in 10% DMSO in treatment media was added for a final compound concentration 1, 3, or 10 μM (1.0% final [DMSO]) and plates were incubated for 6 days at 37° C.
Measured Attribute: AD38 Viability Normalized Result (CPAM/DMSO %) at 10 μM
Answer format: numeric, % implied, no suffix.

Record summary for "COc1ccc(S(=O)(=O)N2CCN(c3nc(Nc4ccc(C)cc4)cc(N(C)C)n3)CC2)cc1" : reported AD38 Viability Normalized Result (CPAM/DMSO %) at 10 μM = 107

Note to self: AD38 Viability Normalized Result (CPAM/DMSO %) at 10 μM recorded for "O=S(=O)(c1ccccc1)N1CCN(c2nc(Nc3ccc(F)cc3)cc(-n3cnnc3)n2)CC1" was 94

Sure, the documented AD38 Viability Normalized Result (CPAM/DMSO %) at 10 μM for "Cc1ccc(Nc2cc(C)nc(N3CCN(S(=O)(=O)c4ccc5[nH]c(=O)[nH]c5c4)CC3)n2)cc1" is 108

# AD38 Viability Normalized Result (CPAM/DMSO %) at 10 μM (compound: "CNc1cc(Nc2ccc(C)cc2)nc(N2CCN(S(=O)(=O)c3ccc(OC)cc3)CC2)n1" ) is 109

----------
Please provide measured AD38 Viability Normalized Result (CPAM/DMSO %) at 10 μM for the entries that follow.
Tested on: AD38 cells
Test: AD38 viability normalized to DMSO control
Type: cell-based
Conditions: 10 μM compound, vs DMSO control; Table 6
Procedure: AD38 cells were then re-suspended with 10 mL of treatment medium and counted. Wells of a collagen coated 96-well NUNC microtiter plate were seeded at 50,000/well in 180 μL of treatment medium, and 20 μL of either 10% DMSO (Control) or a 10× solution of test compound in 10% DMSO in treatment media was added for a final compound concentration 1, 3, or 10 μM (1.0% final [DMSO]) and plates were incubated for 6 days at 37° C.
Entry rule: numbers only, all in %.

Per the records, this compound ( COc1cccc(S(=O)(=O)N2CCN(c3cc(C)nc(Nc4ccc(C)cc4)n3)CC2)c1 [Compound 1151] ) has AD38 Viability Normalized Result (CPAM/DMSO %) at 10 μM equal to 73

Please fill in: AD38 Viability Normalized Result (CPAM/DMSO %) at 10 μM reported for CN(C)c1cc(Nc2ccc(F)cc2)nc(N2CCN(S(=O)(=O)c3ccccc3)CC2)n1 [Compound 1304] = 113

Reported AD38 Viability Normalized Result (CPAM/DMSO %) at 10 μM of COc1ccc(S(=O)(=O)N2CCN(c3nc(C)cc(Nc4ccccn4)n3)CC2)cc1 [Compound 1215] : 89

Kindly note the recorded AD38 Viability Normalized Result (CPAM/DMSO %) at 10 μM for CC(C)c1cc(Oc2ccc(F)cc2)nc(N2CCN(S(=O)(=O)c3ccc(F)cc3)CC2)n1 [Compound 1295] , which is 101

Lab note: Cc1ccc(Nc2cc(C)nc(N3CCN(S(=O)(=O)c4cccs4)CC3)n2)cc1 [Compound 1146] gave AD38 Viability Normalized Result (CPAM/DMSO %) at 10 μM of 106

What the record says about COc1ccc(S(=O)(=O)N2CCN(c3nc(Nc4ccc(C)cc4)cc(N4CCOCC4)n3)CC2)cc1 [Compound 1179] : AD38 Viability Normalized Result (CPAM/DMSO %) at 10 μM is 103

Record COc1cccc(S(=O)(=O)N2CCN(c3cccc(Nc4ccc(C)cc4)n3)CC2)c1 [Compound 1168] . Reported AD38 Viability Normalized Result (CPAM/DMSO %) at 10 μM: 100

Entry under test: COc1ccc(S(=O)(=O)N2CCN(c3nc(C)cc(Nc4ccc5ccccc5c4)n3)CC2)cc1 [Compound 1188] . Its AD38 Viability Normalized Result (CPAM/DMSO %) at 10 μM was 105

----------
tested on: HBV viral load, AD38 cells; experiment: Activity of test compounds on viral production from AD38 cells (viral load by quantitative PCR of the core sequence in supernatant); assay type: cell-based, Hepatitis B virus; details: Hepatitis B virus, 144 h, 10 μM compound, 6 days at 37° C., vs DMSO control wells; Table 6; read-out: AD38 Viral Load (CpAM/DMSO %) at 10 μM
Please go through the items and note down their activity at 10 µM.
Kindly answer with a numeric value in %, unit omitted.

The reported HBV viral load, AD38 cells activity at 10 µM of COc1ccc(S(=O)(=O)N2CCN(c3nc(C)cc(Nc4ccccn4)n3)CC2)cc1 [Compound 1215] is 93

Tested system HBV viral load, AD38 cells; activity at 10 µM recorded for Cc1ccc(Nc2cc(C)nc(N3CCN(S(=O)(=O)c4ccccc4C)CC3)n2)cc1 [Compound 1153] was 21

The compound CC(C)c1cc(Oc2ccc(F)cc2)nc(N2CCN(S(=O)(=O)c3ccccc3)CC2)n1 [Compound 1301] , tested on HBV viral load, AD38 cells, showed activity at 10 µM of 63

The value of activity at 10 µM recorded for O=S(=O)(c1ccc(C(F)(F)F)cc1)N1CCN(c2nc(Nc3ccc(F)cc3)cc(-n3cnnc3)n2)CC1 [Compound 1315] when tested on HBV viral load, AD38 cells reads 89

----------
tested on: AD38 cells; assay: AD38 viability normalized to DMSO control; format: cell-based; settings: 10 μM compound, vs DMSO control; Table 9
Measured Attribute: AD38 Viability Normalized Result (CPAM/DMSO %) at 10 μM
The answer is to be given in %; state only the numeric part.

Known value: AD38 cells AD38 Viability Normalized Result (CPAM/DMSO %) at 10 μM of the molecule "N#Cc1ccc(Nc2cc(-c3cncs3)nc(N3CCN(S(=O)(=O)c4ccc(F)cc4)CC3)n2)cc1" equals 108

Record CCCCOc1ccc(S(=O)(=O)N2CCN(c3nc(Nc4ccc(F)cc4)cc(-c4nccs4)n3)CC2)cc1 [Compound 1368] has AD38 cells AD38 Viability Normalized Result (CPAM/DMSO %) at 10 μM equal to 94

Known value: AD38 cells AD38 Viability Normalized Result (CPAM/DMSO %) at 10 μM of the molecule "Cc1cc(Nc2ccc(C#N)cc2)nc(N2CCN(S(=O)(=O)c3ccc(OCCN(C)C)cc3)CC2)n1" equals 15

----------
Can you tell me activity at 10 µM for the items I'm about to list?
system: HBV viral load, AD38 cells; test: Activity of test compounds on viral production from AD38 cells (viral load by quantitative PCR of the core sequence in supernatant); assay type: cell-based, Hepatitis B virus; conditions: Hepatitis B virus, 144 h, 10 μM compound, 6 days at 37° C., vs DMSO control wells; Table 6; read-out: AD38 Viral Load (CpAM/DMSO %) at 10 μM
Only the number, expressed in %, is required.

response.value for "COc1ccc(S(=O)(=O)N2CCN(c3nc(Nc4ccc(C)cc4)cc(-n4nccn4)n3)CC2)cc1" (field: activity at 10 µM) = 6

The reported activity at 10 µM of the molecule "COc1ccc(S(=O)(=O)N2CCN(c3nc(Nc4ccc(C)cc4)cc(-n4cncn4)n3)CC2)cc1" was 0

Record "COc1ccc(S(=O)(=O)N2CCN(c3nc(Nc4ccc(C)cc4)cc(NC(C)C)n3)CC2)cc1" . Reported activity at 10 µM: 45

Briefly, activity at 10 µM measured for "Cc1ccc(Nc2cc(C)nc(N3CCN(S(=O)(=O)c4cnc(N)nc4)CC3)n2)cc1" : 78

get_value(item= "O=S(=O)(c1ccc(C(F)(F)F)cc1)N1CCN(c2nc(Oc3ccc(F)cc3)cc(-n3cnnc3)n2)CC1" , readout=activity at 10 µM) returns 63

activity at 10 µM recorded for this molecule, "CN(C)c1cc(Nc2ccc(F)cc2)nc(N2CCN(S(=O)(=O)c3ccc(C(F)(F)F)cc3)CC2)n1" , is 14

Data point: "Cc1ccc(Nc2cc(C)nc(N3CCN(S(=O)(=O)c4ccc(N)nc4)CC3)n2)cc1" ; activity at 10 µM = 70

GET /value?item= "CN(C)c1cc(Oc2ccc(F)cc2)nc(N2CCN(S(=O)(=O)c3ccc(C(F)(F)F)cc3)CC2)n1" &field=activity at 10 µM returns 100

Recorded activity at 10 µM (molecule "Cc1ccc(S(=O)(=O)N2CCN(c3nc(C)cc(Nc4ccc(C#N)cc4)n3)CC2)cc1" ): 1

Measured activity at 10 µM of "COc1ccc(S(=O)(=O)N2CCN(c3nc(Nc4ccc(C)cc4)cc(N4CCCC4=O)n3)CC2)cc1" : 77

Value of activity at 10 µM reported for the molecule "COc1cccc(S(=O)(=O)N2CCN(c3cccc(Nc4ccc(C)cc4)n3)CC2)c1" is 51
